The measured values listed here are drawn from patent US20250027068.

Each item that follows carries a reported Enzyme Activity Endpoint Assay: IgG.
molecular target: pooled human IgG (human IgG1,2,3 and 4)
Give the value in ng/µL but do not write ng/µL after it.

Some entries whose results are on file:
>  <protein>
PRT-260 (protein) MVTSVWTKGVTPPTNFTYGEDVLHAPYVANQGWYDITKTFNGKDNLLCGAATAGNMLHWWFDQNKEQIENYLKKHPEKQKINFNGEQLFDVKEAIDTKDSQLDSKLFDYFKEKAFPNLSTKHLGVFPDHVIDMFINGYRLSLLNHGPTPVKRGSKDKRGGIFDAVFTRGVQSKLLTNRHDFKEKTLKEISDLIKQELTEGKALGISHTYANVRINHVINLWGADFDAEGNLEAIYVTDSDTNPSIGMKKYFVGVNSSGKVAISAKEIEEDNIGAQVLGLFTLSTGQDIWNQTN

>  <number>
0

$$$$
>  <protein>
PRT-87 (protein) MANQEIRYSEVTPYHITSVWTKGVTPPEQFTQGEDVFHAPYIANQGWYDITKTFNGKDNLLCGAATAGNMLHWWFDQNKEEIERYLKKYPEKQKIMFGDQELLDVRKVINTKDSQTNSKLFEYFRDKAFPNLSARRLGVMPDLVLDMFINGYYLSVTKTQTTDVNRTYGNKDNRGGIFDAVFTRGDQSKLLTNRHDFKEKNLKEISQLIKQELQEGKALALSHTYANVRINHVINLWGADFDSEGNLKAIYVTDSDSNASIGMKKYFVGVNSSGKVAISAKEIEEDNIGAQVLGLFTLSTGQDIWEQTN

>  <number>
60

$$$$
>  <protein>
PRT-168 (protein) MANQEIRYSEVTPYHVTSVWTKGVTPPEDFTQGEDVFHAPYKANQGWYDITKTFNGKDDLLCGAATAGNMLHWWFDQNKDQIKRYLEEHPEKQKINFNGEQMFDVKEAIDTKNSQLDSKLFEYFKEKAFPYLSTKHLGVFPDHVIDMFINGYRLSLTNHGPTPVKEGSKDPRGGIFDAVFTRGDQSKLLTSRHDFKEKNLKEISDLIKKELTEGKALGLSHTYANVRINHVINLWGADFDSNGNLKAIYVTDSDSNASIGMKKYFVGVNSAGKVAISAKEIKEDNIGAQVLGLFTLSTGQDSWNQTN

>  <number>
0

$$$$

Here is the next item to consider.
// PRT-104 (protein) MANQEIRYSEVTPYHVTSVWTKGVTPPAKFTQGEDVFHAPYVANQGWYDITKTFNGKDDLLCGAATAGNMLHWWFDQNKEKIEAYLKKHPDKQKIMFGDQELLDVRKVINTKGDQTNSELFNYFRDKAFPGLSARRIGVMPDLVLDMFINGYYLNVTKTQTTDVNRTYQEKDRRGGIFDAVFTRGDQSKLLTSRHDFKEKNLKEISDLIKKELTEGKALGLSHTYANVRINHVINLWGADFDSNGNLKAIYVTDSDSNASIGMKKYFVGVNSAGKVAISAKEIKEDNIGAQVLGLFTLSTGQDSWNQTN : Enzyme Activity Endpoint Assay: IgG value = 0
